# measurement protocol: yeast display, Sf9 membrane polyspecificity reagent, FACS + sequencing; frameworks hold sequencing errors
quantity measured: polyreactivity (PSR sort gate)

>>> assay_result("QVQLVESGGGLVQAGATIRLSCAASVRTFESNALGWYRQEPGKERELVAGITSGGITNYADSVKGRFTISRDNAKNNVYLQMNSLKPEDTAVYYCEFYYWGQGTQVTVSS")
"low polyreactivity"
>>> assay_result("QVKLVESGGGLVQAGGSLRLSSADSGFIFRRYAMGWYRQAPGKERELVAAINYSGGSTYYADSVKGRFTISRDHAKNTVYLQMNSPKPEYTAVYYCNAYGLRYYEYDYWGQGTQVTVSS")
"low polyreactivity"

###

# measurement protocol: yeast display, Sf9 membrane polyspecificity reagent, FACS + sequencing; frameworks hold sequencing errors
quantity measured: polyreactivity (PSR sort gate)

>>> assay_result("QVQLVESGGGLVQEGGSLRIICAASGFTFYRYARGWYRQEPGKERELVAAISSHGDRTYYSDSVKGRFTISRDNAKNTVYLQMNSLKPEDTAVYFCNVETLYGYFLHFYLRYYHWGQGTQVTVSS")
"high polyreactivity"
>>> assay_result("QVQLVESGGGLVQAGGSLRLSCAASGSIIHYTMGWYRQAPGKERELVAAISKSGGSTYYADSVKGRFTISRDNAKNTVYLQMNSLKPEDTAVYYCAAVGYYAWTFGYDYWGQGTQVTVSS")
"high polyreactivity"

###

# measurement protocol: yeast display, Sf9 membrane polyspecificity reagent, FACS + sequencing; frameworks hold sequencing errors
quantity measured: polyreactivity (PSR sort gate)

Worked examples follow.
>>> assay_result("QVQLVESGGGLVQAGGSLRLSCAASGSIFYLYAMGWYRQAPGKERELVAAISESGSTTYYADSVKGRFTISRDNAKNTVYLQMNSLKPEDTAVYYCARLGTYTVVTYDYWGQGTQVTVSS")
"low polyreactivity"
>>> assay_result("QVQLVESGGGLVQAGGSLRLSCAASGITFRFNAMGWYRQAPGKEREFVAAITYSGDSTYYADSVKGRFTISRDNAKNTVYLQKNSLKPEDTAVYYCAADYYAISRRIFYYWGQGTQVTVSS")
"low polyreactivity"
>>> assay_result("QVQLVESGGGLVQAGGSLRLSCAASGIIFSYYAMGWYRQAPGKERELVAAITWSVGSTDYADSVKGRFTISRDNAKNTVYLQMNSLKPEDTAVYYCAATITTLDWDDRYDYWGQGTQETVSS")
"low polyreactivity"
>>> assay_result("QVQLVESGGGLVQAGGSLRLSCAASGRIFYVNAMAWYRQAPGTEREFVAAIRVDGASTYYADSVKGRFTFSRDNAKNTVYLQMNSLKPEDTAVYYCAARTRSYWSTTYYYWGQGTEVTVSS")
"high polyreactivity"

Enquiry: Requested read-out: polyreactivity (PSR sort gate). Entry: QVQLVESGGGLVQAGGSLRLSCAASGRLFHPYAMGWYRQAPGKERELVARITTSGGSTSYADSVKGRFTISRDNAKNTVYLQMNSLKPEDTAVYYSAADRARYYSEYDYWGQGTQVTVSS
Return: low polyreactivity

Enquiry: Requested read-out: polyreactivity (PSR sort gate). Entry: QVQLVESGGGLVQAGGSLRLSCAASGRIFGAYAKGWYRQAPGTERELVAAISGSGGSTSYADSVKGRFTISRDNAKNTVYLQMNSLKPEDTAVYYCNAVSYVDIWDDRRYYYWVQGTQVTVSS
Return: low polyreactivity

Enquiry: Requested read-out: polyreactivity (PSR sort gate). Entry: QVQLVESGGGLVQAGGSLRLSCAASGFIFGVNAMGWYRQAPGKEPELVAAINGGASTYYADSVKGRFTISRDNAKNTVYLQMNSLKPEDTAVYYCAAVFYDYRGRLYPNFGLYYYWGQGTQVTVSS
Return: high polyreactivity

Where do the numbers come from? From the nanobody polyreactivity screen of Harvey et al. (2022).
